Test: Cellular Toxicity (caspase-3) Jurkat (AID 655);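 further: cells exposed to compound for 16 h at 37 °C before reading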
Details: Jurkat caspase-3 activation, luminescence; series mostly up to 92.2 µM
Records with an inconclusive call do not appear. Active and inactive are the calls of the source. The call rests on the fitted dose curve; in most records, active means well fitted activation curve with a large enough effect; inconclusive means small, poorly fitted or top-dose-only effect; inactive means flat fitted curve, though single readings scatter.
// one of active, inactive, no free text

Exercise: Answer briefly: the call reported for `COc1cc(CNC(=O)CCCC/C=C/C(C)C)ccc1O` in this assay.
Solution: inactive

Exercise: Try this molecule too: `CN1CCC[C@H]1c1cccnc1`
Solution: inactive

Exercise: How about `O=C1CN(/N=C/c2ccc([N+](=O)[O-])o2)C(=O)N1` ?
Solution: inactive

Exercise: Next up: `O=c1cc(-c2ccccc2)oc2ccccc12`
Solution: inactive

Exercise: Another molecule to look at: `c1cnc2c(c1)ccc1cccnc12`
Solution: active

Exercise: And what about the molecule `CN(C)c1ccc(N=NS(=O)(=O)O)cc1` ?
Solution: inactive

Exercise: Next: `Nc1ccc([N+](=O)[O-])cc1O`
Solution: inactive

Exercise: Similarly, `CCCCCCCCCCCCCCCCCC(=O)O` ?
Solution: inactive

---

Assay: Cell Viability - Mesenchymal (AID 546);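 further: cells exposed to compound for 40 hours before reading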
Settings: mesenchymal cells viability, qHTS
Inconclusive results are not listed. Calls of active or inactive are those of the source. Calls come from the whole dose curve; as a rule, active = well fitted cell-killing curve with a large enough effect; inconclusive = small, poorly fitted or top-dose-only effect; inactive = flat fitted curve, though single readings scatter.
Could you please pick one outcome from this set? T = active, F = inactive

Exercise: Write down the call the test reported for this compound. Item: `S=c1[nH]c2ccccc2s1`
Solution: F

Exercise: Now try `Nc1nc2ccc([N+](=O)[O-])cc2s1` .
Solution: F

Exercise: Now try `COc1cc(CNC(=O)CCCC/C=C/C(C)C)ccc1O` .
Solution: F

Exercise: Please do the same for `CN(C)c1ccc(N=NS(=O)(=O)O)cc1` as well.
Solution: F

Exercise: Now this one: `Oc1ccccc1O`
Solution: F

Exercise: What do you have for `COc1cc(/C=C/C(=O)CC(=O)/C=C/c2ccc(O)c(OC)c2)ccc1O` ?
Solution: F

Exercise: What about this compound? `Nc1ccc(O)c([N+](=O)[O-])c1`
Solution: F

Exercise: Another compound to check: `CN(C)c1ccc(C(=C2C=CC(=[N+](C)C)C=C2)c2ccccc2)cc1`
Solution: T

---

System: Zika virus NS2B-NS3 protease
Experiment: Primary screen GU AMC qHTS for Zika virus inhibitors (AID 1347154); further: nearly all actives have a fitted effect of over 70% in size
Conditions: Zika NS2B-NS3 unlinked protease, AMC fluorogenic substrate; series mostly up to 54.1 µM
Results filed as inconclusive are left out. The source made the active and inactive calls. Calls follow the shape of the dose curve; as a rule, active = well fitted inhibition curve with a large enough effect; inconclusive = small, poorly fitted or top-dose-only effect; inactive = flat fitted curve, though single readings scatter.
Mark one answer only. Choices: active, inactive

Exercise: Short answer needed: outcome of this test for Cc1ccc2c(n1)Oc1ccc(C(C)C(=O)OCC(=O)N(C)C)cc1C2 (stereo not drawn) ?
Solution: inactive

Exercise: Note, next up: `OC[C@H]1O[C@@H](n2cnc3c(NC4CCCCC4)ncnc32)[C@H](O)[C@@H]1O`
Solution: inactive

Exercise: What do you get for `COC(=O)c1nc(Cl)c(Cl)nc1N` ?
Solution: active

Exercise: Can you check `CCOc1ccc2nc(S(N)(=O)=O)sc2c1` next?
Solution: inactive

Exercise: // next record `CNc1ncnc2c1ncn2[C@@H]1O[C@H](CO)[C@@H](O)[C@H]1O`
Solution: inactive

Exercise: Try this compound next: COC(=O)C1=C(C)NC(C)=C(C(=O)OCC(C)=O)C1c1ccccc1[N+](=O)[O-] (stereo not drawn)
Solution: inactive

Exercise: Moving on to `O=C1NC(=O)c2c1c(-c1ccccc1)cc1[nH]c3ccc(O)cc3c21`
Solution: inactive

Exercise: Now the same for `O=C(O)c1cc([N+](=O)[O-])ccc1NCCCc1ccccc1`
Solution: inactive

Source listed as PubChem BioAssay (NCATS).
